Test system: ATP;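 note: ATP exposure 15 min at 22 °C before imaging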
Test: switch fluorescence ratio, 500 uM ATP over buffer (Cy3 cluster intensity, sum of 5 cycles each) (fold (ratio)); higher = stronger signal-on switching upon ATP binding; sequences stand for … in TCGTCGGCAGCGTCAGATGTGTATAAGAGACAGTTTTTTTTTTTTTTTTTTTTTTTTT…TC
Details: aptamer strand: ATP DNA aptamer (quencher-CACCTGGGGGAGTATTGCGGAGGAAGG + anchor), 100 nM annealed; ATP concentration: 500 uM

Residue sequence	Target entity	switch fluorescence ratio
GATGGAACAC	ATP	0.994
ATGTAAGATT	ATP	0.989
GAAATCATGT	ATP	0.977
TTTTTAAATG	ATP	0.991
TAGTTCGCTT	ATP	1
TTATAAGCTT	ATP	0.997
CGGTCCGGTG	ATP	1.04
CTTGTGGTGT	ATP	0.973
TACGATTAGT	ATP	1
GGGGCTTATC	ATP	1.03
TGTATGTTTT	ATP	0.962
GCGAGGCCGT	ATP	1
TTGGATGCCT	ATP	1.01
TAGGGGCGGC	ATP	1.01
GTTATATTTG	ATP	0.997
TCCTGGGTAT	ATP	1.69
TCTCGGGGCG	ATP	1
TTGGTGAACG	ATP	0.989
TTGTTTGTTC	ATP	1.01
AACATTAGGC	ATP	1.05
CCGGGATGGT	ATP	1.14
GGGTTACAGC	ATP	1
CAAGGTCAGC	ATP	0.98
GCTATGATAA	ATP	0.993
TTTGTTTGCT	ATP	0.989
AGCCTAGTTC	ATP	1.01
TACTATTTGT	ATP	1.04
TATTTAGTCT	ATP	1
CCGGTTTGGA	ATP	1.13
GCCTCACCCG	ATP	1.26
GCTAGATCAC	ATP	1.02
GAGACAGGAT	ATP	1.01
CTCCTAAATG	ATP	1.19
GAGTGGTGTG	ATP	0.979
TTGCGGGCCG	ATP	0.967

----------
Test system: ATP;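 note: ATP exposure 15 min at 22 °C before imaging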
Test: switch fluorescence ratio, 500 uM ATP over buffer (Cy3 cluster intensity, sum of 5 cycles each) (fold (ratio)); higher = stronger signal-on switching upon ATP binding; sequences stand for … in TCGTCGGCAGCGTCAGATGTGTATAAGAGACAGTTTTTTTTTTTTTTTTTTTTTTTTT…TC
Conditions: aptamer strand: ATP DNA aptamer (quencher-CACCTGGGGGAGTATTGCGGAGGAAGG + anchor), 100 nM annealed; ATP concentration: 500 uM
Quick rule: switch fluorescence ratio of at least 1 means Met, below that means Not met.

Residue sequence	Assigned category
GGCGCAAAGC	Met
TACAGAAGCG	Met
GGTAGGGATA	Met
TATAAAACCC	Met
CTCTGTATGT	Met
CTGGGTGCCG	Not met
TTTTAAGGAA	Met
CCCTTGATGC	Met
GGGCATAGAT	Met
AGGTTTTTAG	Not met
GTGTAAAGGC	Not met

----------
System: ATP;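 note: ATP exposure 15 min at 22 °C before imaging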
Assay: switch fluorescence ratio, 500 uM ATP over buffer (Cy3 cluster intensity, sum of 5 cycles each) (fold (ratio)); higher = stronger signal-on switching upon ATP binding; sequences stand for … in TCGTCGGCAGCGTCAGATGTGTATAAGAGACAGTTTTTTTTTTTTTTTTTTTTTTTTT…TC
Details: aptamer strand: ATP DNA aptamer (quencher-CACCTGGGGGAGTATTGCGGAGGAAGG + anchor), 100 nM annealed; ATP concentration: 500 uM
Reported switch fluorescence ratio values are given for each entry in this list.

Residue sequence	switch fluorescence ratio
GCTAGGGCGT	0.972
CTGGGATAGG	1
TAGTTGGTAC	0.992
ATGGGTAGTT	0.977
AACGTTTTTT	0.991
TACCGGGTGG	1.06
ACTTTTGCGG	1.02
TTGCGGGCAG	1.04
AAGCTGGTTT	0.982
ACCCTCGGGG	1
CCGATTACGC	1.9
AACGGGGAGC	0.983
GGGCGGGTTG	1
TGGGCTAAAT	0.987
CAAGGACGAG	1.02
TCCATATGCT	0.994
TTTTGCGCAA	0.992
TTTTTTAACT	1
AGGTAATGGT	0.998
CTGTCATGGG	0.995
GGGGGCAATC	2.84
